Entries and their measured Max MFI follow.
Molecular target: cynomolgus PD-1 expressed on cells (cynomolgus monkey) (UniProt B0LAJ3)
Sequence (B0LAJ3 entry or part of it limits assumed): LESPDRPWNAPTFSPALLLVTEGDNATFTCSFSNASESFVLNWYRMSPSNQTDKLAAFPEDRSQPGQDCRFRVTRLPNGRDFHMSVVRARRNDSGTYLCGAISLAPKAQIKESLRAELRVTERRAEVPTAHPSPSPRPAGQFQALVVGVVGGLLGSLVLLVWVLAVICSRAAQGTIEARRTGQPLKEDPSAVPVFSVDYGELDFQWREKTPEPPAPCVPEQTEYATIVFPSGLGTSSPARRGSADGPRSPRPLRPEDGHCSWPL
Assay: flow cytometry, CHO-S Cyno-PD-1
Numbers only here, please. The scale is MFI.

Examples with answers:
XVT458-z2-m3 (antibody, V domains shown) VH: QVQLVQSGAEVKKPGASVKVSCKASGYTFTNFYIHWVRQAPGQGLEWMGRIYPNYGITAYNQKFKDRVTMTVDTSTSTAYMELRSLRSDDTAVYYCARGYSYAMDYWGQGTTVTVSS VL: DIQMTQSPSSVSASVGDRVTITCSASQGISGDLNWYQQKPGKAPKLLIYHTSQRHSDVPSRFSGSGSGTDFTLTISSLQPEDFATYYCQGYSKDLLTFGGGTKLEIK : 124
XVT458-z2-m5 (antibody, V domains shown) VH: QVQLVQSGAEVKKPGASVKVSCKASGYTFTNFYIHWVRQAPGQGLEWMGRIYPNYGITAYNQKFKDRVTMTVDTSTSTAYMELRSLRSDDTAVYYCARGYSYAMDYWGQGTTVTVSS VL: DIQMTQSPSSVSASVGDRVTITCSASQGIYGDLNWYQQKPGKAPKLLIYHTSSRHSGVPSRFSGSGSGTDFTLTISSLQPEDFATYYCQAYSKDLLTFGGGTKLEIK : 335
XVT458-z2-m2 (antibody, V domains shown) VH: QVQLVQSGAEVKKPGASVKVSCKASGYTFTNFYIHWVRQAPGQGLEWMGRIYPNYGFTAYNQKFKDRVTMTVDTSTSTAYMELRSLRSDDTAVYYCARGYSYAMDYWGQGTTVTVSS VL: DIQMTQSPSSVSASVGDRVTITCSASQGIYGDLNWYQQKPGKAPKLLIYHTSSLHSGVPSRFSGSGSGTDFTLTISSLQPEDFATYYCQAYSKDLLTFGGGTKLEIK : 367

Fill in: Max MFI of XVT458-z2-m1 (antibody, V domains shown) VH: QVQLVQSGAEVKKPGASVKVSCKASGYTFTNFYIHWVRQAPGQGLEWMGSIYPNYGFTAYNQKFKDRVTMTVDTSTSTAYMELRSLRSDDTAVYYCARGYSYAMDYWGQGTTVTVSS VL: DIQMTQSPSSVSASVGDRVTITCSASQGIWGDLNWYQQKPGKAPKLLIYHTSQLHSDVPSRFSGSGSGTDFTLTISSLQPEDFATYYCQGYSKDLLTFGGGTKLEIK is ___
70

Fill in: Max MFI of z2-XVT458 (antibody, IgG1, V domains shown) VH: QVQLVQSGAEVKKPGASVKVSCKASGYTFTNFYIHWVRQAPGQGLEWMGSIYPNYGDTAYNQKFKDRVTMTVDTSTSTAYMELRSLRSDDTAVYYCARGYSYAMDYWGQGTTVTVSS VL: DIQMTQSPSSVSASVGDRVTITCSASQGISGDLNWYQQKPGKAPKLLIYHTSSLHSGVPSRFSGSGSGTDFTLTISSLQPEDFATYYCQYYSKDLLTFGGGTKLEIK is ___
109

Fill in: Max MFI of XVT458-z2-m4 (antibody, V domains shown) VH: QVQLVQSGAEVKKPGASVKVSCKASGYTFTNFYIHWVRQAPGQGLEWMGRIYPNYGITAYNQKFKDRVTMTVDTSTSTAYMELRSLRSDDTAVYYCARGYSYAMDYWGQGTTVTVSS VL: DIQMTQSPSSVSASVGDRVTITCSASQGISGDLNWYQQKPGKAPKLLIYHTSSRHSGVPSRFSGSGSGTDFTLTISSLQPEDFATYYCQGYSKDLLTFGGGTKLEIK is ___
258

Fill in: Max MFI of XVT458-z2-m6 (antibody, V domains shown) VH: QVQLVQSGAEVKKPGASVKVSCKASGYTFTNFYIHWVRQAPGQGLEWMGSIYPNYGITAYNQKFKDRVTMTVDTSTSTAYMELRSLRSDDTAVYYCARGYSYAMDYWGQGTTVTVSS VL: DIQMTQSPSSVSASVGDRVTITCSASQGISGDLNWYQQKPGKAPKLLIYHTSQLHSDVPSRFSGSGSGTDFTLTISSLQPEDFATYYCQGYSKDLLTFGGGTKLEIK is ___
59
